Molecular target: Sulfonylurea receptor 2, Kir6.2 (Homo sapiens) (UniProt Q14654+O60706)
Assay: Activity against pig bladder KATP channel opening assessed as ability to relax spontaneous bladder contraction relative to P1075
Format: functional
Details: Sus scrofa; target entry is the homologue from another species
MEASURED_ATTRIBUTE: Efficacy (%)

Query string: Suppose we examine the compound CC[C@H]1OCC(O)=C2C1=NC1=C(C(=O)COC1)[C@H]2c1ccc(Br)c(Cl)c1 (stereo in doubt; 76b) ; what Efficacy value has been reported?
Result string: 97

Query string: Suppose we examine the compound CCC[C@H]1OC(O)=C2C1=NC1=C(C(=O)COC1)[C@H]2c1ccc(F)c(Br)c1 (stereo in doubt; 23b) ; what Efficacy value has been reported?
Result string: 99

Query string: Suppose we examine the compound CC[C@H]1OCC(O)=C2C1=NC1=C(C(=O)COC1)[C@H]2c1ccc(F)c(Br)c1 (stereo in doubt; 71a) ; what Efficacy value has been reported?
Result string: 98

Query string: Suppose we examine the compound CC1(C)Oc2ccc(C#N)cc2[C@H](N2CCCC2=O)[C@H]1O (single isomer, unassigned) ; what Efficacy value has been reported?
Result string: 100

Query string: Suppose we examine the compound O=C1COCC2=C1C(c1ccc(F)c(Br)c1)C1=C(O)OCC1=N2 (stereo in doubt; 6b) ; what Efficacy value has been reported?
Result string: 100

Query string: Suppose we examine the compound "CCc1cc(C#N)ccc1Nc1c(N[C@H](C)C(C)(C)C)c(=O)c1=O" ; what Efficacy value has been reported?
Result string: 100

Query string: Suppose we examine the compound "C[C@](O)(C(=O)Nc1ccc(C(=O)c2ccccc2)cc1)C(F)(F)F" ; what Efficacy value has been reported?
Result string: 100
